Tested on: 3D7
Test: qHTS profiling for inhibitors of Plasmodium falciparum proliferation (AID 504749); further: nearly all actives have a fitted effect of over 60% in size
Settings: P. falciparum in erythrocytes, SYBR Green DNA, 72 h; series mostly up to 28.7 µM
Records with an inconclusive call do not appear. Active and inactive are the calls of the source. The call rests on the fitted dose curve; in most records, active means well fitted inhibition curve with a large enough effect; inconclusive means small, poorly fitted or top-dose-only effect; inactive means flat fitted curve, though single readings scatter.
Pick from active, inactive when you respond.

compound	class
CN(C)C(=S)SC(=S)N(C)C	active
CC1=C(C(=O)OC(C)C)C(c2cccc([N+](=O)[O-])c2)C(C(=O)OC2CN(C(c3ccccc3)c3ccccc3)C2)=C(N)N1 (stereo not given)	active
CCCCC(CC)CN=C(N)NC(N)=NCCCCCCN=C(N)NC(N)=NCC(CC)CCCC (stereo not given)	active
OCc1ccccc1O	inactive
COc1cccc(CCc2ccccc2OCC(CN(C)C)OC(=O)CCC(=O)O)c1 (stereo not given)	active
CCCCCCCCCCCCCCCC[N+](C)(C)CC	active

Query: What call does the record list for CCCCN1CCCC1C(=O)Nc1c(C)cc(C)cc1C (stereo not given) ?
Response: inactive

Query: In this assay, the call recorded for NCCc1ccn[nH]1 was what?
Response: inactive

Query: Just curious, what result did C[C@@H](CN(C)C)CN1c2ccccc2Sc2ccccc21 get here?
Response: inactive

Query: Check the results log: what was the call for COc1ccc(CN2CCN(C(c3ccc(F)cc3)c3ccc(F)cc3)CC2)c(OC)c1OC ?
Response: active
